- tested.system: T1, his-tagged murine TIGIT (Acro Biosystems #TIT-M52E6) (murine, UniProt P86176 29-148, limits assumed)
- T1 construct: Bought protein; also called mouse his-tagged TIGIT; not shown: his tag
- T1 sequence (looked up): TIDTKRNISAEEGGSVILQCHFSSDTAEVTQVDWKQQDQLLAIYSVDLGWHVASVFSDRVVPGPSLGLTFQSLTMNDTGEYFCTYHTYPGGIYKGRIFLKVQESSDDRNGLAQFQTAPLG
- test.name: ELISA, coated His-TIGIT, 1 ug/ml
observable: Elisa OD450

1. 43586p2.D01 (scFv, V domains shown) VH: EVQLLESGGGLVQPGGSLRLSCAASGFTVSSNWMSWVRQAPGKGLEWVSTTSSSSWNNYTYYADSVKGRFTISRDNSKNTLYLQMNSLRAEDTAVYYCAKGSYGMDVWGQGTTVTVSS VL: QSVLTQPPSASGTPGQRVTISCSGSNSNIGAKYLYWYQQLPGTAPKLLIYLNDQRPSGVPDRFSGSKSGTSASLAISGLQSEDEADYYCAFWDDHLKGWVFGGGTKLTVL : 1.66 OD450
2. 43586p1.2.E4 (scFv, V domains shown) VH: EVQLLESGGGLVQPGGSLRLSCAASGFTFSDYLMTWVRQAPGKGLEWVSTITWDGDRTYYADSVKGRFTISRDNSKNTLYLQMNSLRAEDTAVYYCAKHWTVFQYGMDVWGQGTTVTVSS VL: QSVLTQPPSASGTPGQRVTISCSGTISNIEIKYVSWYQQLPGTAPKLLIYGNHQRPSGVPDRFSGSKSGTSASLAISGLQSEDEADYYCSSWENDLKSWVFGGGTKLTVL : 2.03 OD450
3. 43586p1.2.E6 (scFv, V domains shown) VH: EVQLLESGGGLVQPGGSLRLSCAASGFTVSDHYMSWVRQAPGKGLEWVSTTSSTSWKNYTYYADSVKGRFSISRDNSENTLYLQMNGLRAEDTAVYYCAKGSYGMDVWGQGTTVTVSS VL: QSVLTQPPSASGTPGQRVTISCSGSNFNIGTKYLYWYQQLPGTAPKLLIYLDSQRPSGVPDRFSTSKSGTSASLAISGLQSEDEADYYCALWDDHLHGWVFGGGTKLTVL : 2.01 OD450

// provenance: patent US20230265187A1
